# Assay: Rat group tissue distribution test
# Format: in vivo, SD male rats
# Study Conditions: male, Sprague Dawley, rat, oral; Kidney, 12 h, intragastric, SD rats, n = 3; read-out: Average drug concentration
Recorded Endpoint: concentration at 12 h (nM)

P = O=c1[nH]ncc(N2CCc3c(nc(CO)nc3Sc3ccc(F)cc3C(F)(F)F)C2)c1Cl
Q = Nc1nc2c(c(Sc3ccc(F)cc3C(F)(F)F)n1)CCN(c1cn[nH]c(=O)c1Cl)C2
Lab note: record which item had the higher concentration at 12 h, P or Q . Give the chosen item's label as your response. Q

---

# Assay: In vivo PK studies, intravenous injection
# Study Conditions: rat, plasma, 0.5 mg/kg, male SD rats, 0.5 mpk, read-out: Vdss
Recorded Endpoint: Vd (L/kg)
Numeric answer only, unit L/kg assumed.

For the compound "O=c1[nH]ncc(N2CCc3c(ncnc3Oc3ccc(F)cc3C(F)(F)F)C2)c1Br" , what Vd is on record? 1.37
